Attribution: PubChem BioAssay (NCI)

- Test system: SF-295 CNS
- ASSAY COMMENT: NCI-60 one-dose screen, 48 h
- COND: 10 µM unless noted
This is part of a sample that, as a whole, favours compounds with a hit. Of some 83,000 tested, about 20% had one in any assay. Calls of active or inactive are those of the source. The calls were made as follows: active = growth percent below 10; inactive = the rest.
Just give me one of these, please: 1.0 for active, 0.0 for inactive

# example entries with known answers
C=C1C(=O)O[C@H]2[C@H]1CC/C(COC(=O)CCC(=O)NCCOCCOCC(=O)Nc1ccc(OC)c(C(N)=O)c1O)=C\CC[C@@]1(C)O[C@@H]21
0.0
O=C(Cc1ccc(F)c(Cl)c1)Nc1cc(C2(C(F)(F)F)CC2)nn1Cc1ccccc1
0.0
CCCCn1c(=O)c(-c2cc(-c3ccc(Cl)cc3)nc(-c3ccc(Cl)cc3)c2)cc2ccc(Cl)cc21
0.0
NCCCNc1nc2ccccc2c2c(=O)c3cc(C(F)(F)F)ccc3sc12
0.0
O=c1ccc(N=Nc2ccccc2)ccc1Cl
0.0

GET /call?item= Cc1ccccc1C(=O)NN returns the recorded outcome of this test.
0.0

Subsequent entry: CN1C(=O)N(C)C2Nn3c(s/c(=C\c4ccccc4)c3=O)=NC21 (stereo not given)
0.0

----------
- Test system: MDA-MB-435 melanoma
- ASSAY COMMENT: NCI-60 one-dose screen, 48 h
- COND: 10 µM unless noted
About 83,000 compounds went through this panel and 20% of them were active in at least one assay; those are over-represented in the sample as a whole. Calls of active or inactive are those of the source. Rule for the calls: active = growth percent below 10; inactive = the rest.
Log the outcome using a class from TRUE for active, FALSE for inactive

CNC(=O)c1[nH]cc(-c2ccccc2)c1-c1cc(OC)c2c(c1OC)OCO2
FALSE
COc1cccc2nc3n(c12)C(c1c(F)cccc1F)SC3 (stereo unspecified)
FALSE
CSc1ccc2c(c1)c(CCN)c(C)n2Cc1ccc(Cl)c(Cl)c1
TRUE
COc1ccc(-c2nnc(COc3ccc(Cl)cc3Cl)o2)cc1OC
FALSE
COC1=C(C)C(=O)c2c(c(CCCl)c3n2CCC3O)C1=O (stereo unspecified)
TRUE

Please state the recorded outcome for this compound: O=C1NC(=O)C(Cn2cnc3ccccc32)N1 (stereo unspecified)
FALSE

----------
- Tested on: IGROV1 ovarian
- ASSAY COMMENT: NCI-60 one-dose screen, 48 h
- COND: 10 µM unless noted
This is part of a sample that, as a whole, favours compounds with a hit. Of some 83,000 tested, about 20% had one in any assay. Activity calls are given as the source filed them. Rule for the calls: active = growth percent below 10; inactive = the rest.
Form entry, call: pick from active, inactive

Worked cases, answers included:
Oc1ccc(-c2nc3ccc4[nH]ncc4c3c3c2CCCC3)c2cccnc12
active
Cn1cc(-c2cc3ncnc(Nc4ccc(CC(=O)Nc5cc(C(C)(C)C)nn5C)cc4)c3s2)cn1
inactive
CC1=C(C)C(=O)C(Nc2cccc(C(=O)OC(C)(C)C)c2)=C(Br)C1=O
inactive
Cc1cccc2c3c(sc12)C(c1ccc(F)cc1)C(C#N)=C(N)O3 (centres undefined)
inactive

Hi team, can someone confirm the assay call for C#C[C@]1(O)CC[C@H]2[C@@H]3CC=C4c5sc(Nc6cc(F)ccc6F)nc5CC[C@]4(C)[C@H]3CC[C@@]21C ?
active

----------
Recorded growth values for a group of compounds are listed next.
- Test system: CCRF-CEM leukemia
- ASSAY COMMENT: NCI-60 one-dose screen, 48 h (100 = growth as untreated, 0 = no growth, -100 = all killed)
- COND: 10 µM unless noted
Compounds without any hit were thinned out: in the full panel of roughly 83,000, 20% have a hit.
Give the value, in units of %, as a plain number.

For orientation, consider the following solved cases.
COc1cc2oc(-c3ccc(O)cc3)cc(=O)c2c(O)c1-c1c(OC)cc(O)c2c(=O)cc(-c3ccc(O)cc3)oc12
44.9
Cc1nc2nc(SCC(=O)O)[nH]c2c(=O)[nH]1
97.2
COc1cc(/C=C/c2ccccc2)cc(OC)c1
108
NC(=O)C1(Nc2ccc(Br)cc2)CCCC1
99.8
CCCCCCCCCCCCCCCCCCOc1ccc(CC(=O)OCC[N+]2(C)CCCCC2)cc1
89.8

What measured growth goes with CCCCCCCCCCCCCCCCCCOc1ccc(CC(=O)OCC[N+](C)(C)C)cc1 ?
102

Please give the result for CNC(C)[C@H]1CCC2C3CCC4C[C@@H](N(C)C(=O)c5ccccc5)CC[C@]4(C)C3CC[C@@]21C (stereo not given in full) too.
21.7

Now give it for Cc1cc(-c2cc(C)c(N)cc2C)c(C)cc1N too.
89.8

Next entry: COc1ccc2c(c1)c(-c1nn3cc(-c4cccs4)nc3s1)cn2C
67

Note, next up: O=C(N/N=C/[C@H](O)[C@H](O)[C@H](O)CO)c1ccc(NC(=O)c2cccnc2)cc1
99.2
